Target: Histone deacetylase 3 (Homo sapiens, UniProt O15379)
Sequence (O15379 whole entry): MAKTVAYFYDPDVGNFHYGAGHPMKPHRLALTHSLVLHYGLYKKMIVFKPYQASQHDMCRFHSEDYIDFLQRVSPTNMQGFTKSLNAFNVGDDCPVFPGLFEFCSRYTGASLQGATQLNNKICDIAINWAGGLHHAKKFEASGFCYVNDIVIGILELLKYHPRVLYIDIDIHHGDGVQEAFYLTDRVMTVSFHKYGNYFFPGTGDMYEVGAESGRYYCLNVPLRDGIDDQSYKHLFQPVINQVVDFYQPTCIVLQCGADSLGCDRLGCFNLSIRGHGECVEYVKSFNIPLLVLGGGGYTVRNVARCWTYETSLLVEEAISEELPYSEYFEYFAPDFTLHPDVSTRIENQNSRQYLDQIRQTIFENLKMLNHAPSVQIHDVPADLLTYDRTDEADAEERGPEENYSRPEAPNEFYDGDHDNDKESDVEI
Assay: Inhibition of HDAC3 (unknown origin) at 5uM
outcome_measure: IC50
Put down the number, then write its unit next to it.

Q: Given the entry "O=C(CCCCCCN1C=Cc2ccccc2C1)NO" , report its measured IC50.
Result: 97 nM

###

Biological target: Histone deacetylase 2 (Homo sapiens)
Sequence (Q92769 whole entry): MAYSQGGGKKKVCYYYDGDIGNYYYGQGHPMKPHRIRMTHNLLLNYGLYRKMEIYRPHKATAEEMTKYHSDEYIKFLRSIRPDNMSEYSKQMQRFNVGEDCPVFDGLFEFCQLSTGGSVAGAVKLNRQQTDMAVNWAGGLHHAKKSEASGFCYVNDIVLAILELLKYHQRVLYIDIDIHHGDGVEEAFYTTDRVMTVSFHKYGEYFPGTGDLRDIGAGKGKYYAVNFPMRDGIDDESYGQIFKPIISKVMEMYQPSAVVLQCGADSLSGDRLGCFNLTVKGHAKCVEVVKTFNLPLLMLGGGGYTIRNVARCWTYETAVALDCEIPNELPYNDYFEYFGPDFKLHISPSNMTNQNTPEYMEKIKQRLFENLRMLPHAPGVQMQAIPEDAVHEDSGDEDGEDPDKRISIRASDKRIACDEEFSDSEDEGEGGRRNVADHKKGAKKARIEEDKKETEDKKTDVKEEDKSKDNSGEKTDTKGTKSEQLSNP
Assay: Inhibition of recombinant HDAC2 (unknown origin) at 50 uM measured after 24 hrs by fluorometric based analysis
outcome_measure: IC50 (nM)
Write it as a number; the unit nM goes unstated.

Q: Give the measured IC50 of "Nc1ccc(F)cc1NC(=O)c1cc2ccccc2o1" .
Result: 1500

###

Target: Histone deacetylase 1 (Homo sapiens)
Sequence (Q13547 whole entry): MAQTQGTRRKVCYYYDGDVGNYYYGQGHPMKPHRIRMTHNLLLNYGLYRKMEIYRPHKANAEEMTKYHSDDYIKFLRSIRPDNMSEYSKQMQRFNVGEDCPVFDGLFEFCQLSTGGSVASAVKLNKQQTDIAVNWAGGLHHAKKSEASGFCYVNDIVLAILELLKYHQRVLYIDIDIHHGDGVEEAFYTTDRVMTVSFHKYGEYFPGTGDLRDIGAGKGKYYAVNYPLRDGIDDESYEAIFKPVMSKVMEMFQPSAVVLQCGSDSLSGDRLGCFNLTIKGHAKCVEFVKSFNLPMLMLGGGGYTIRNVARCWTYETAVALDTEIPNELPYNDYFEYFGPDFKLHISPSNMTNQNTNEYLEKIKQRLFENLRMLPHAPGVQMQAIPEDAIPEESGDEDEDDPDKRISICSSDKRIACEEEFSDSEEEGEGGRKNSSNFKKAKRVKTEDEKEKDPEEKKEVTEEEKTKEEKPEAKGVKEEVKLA
Test: Inhibition of human recombinant HDAC1 using (FAM)-labeled acetylated peptide substrate at 1 uM incubated for 17 hrs by fluorescence based analysis
pIC50: −log10 of the molar value.
outcome_measure: pIC50

Q: What value of pIC50 has been reported for the following compound? "Nc1ccccc1NC(=O)CCCCCCC(=O)Nc1cccc(-c2cn(-c3ccccc3)nn2)c1"
Result: < 4.52
